testMethodNotes: Cytotoxicity assay (resazurin)
Format: cell-based, murine
conditionsUsed: mouse, L-929 fibroblasts; 32 μg/mL, 24 h; percentage of dead cells
Experimental: The cytotoxicity assay was carried out in the human hepatocellular carcinoma cell line Hep G2 ATCC and in murine L-929 fibroblasts (NCTC clone 929, ECACC 88102702), based on the experiments described by Vinuesa et al.. The cells were obtained from Dr. Ricardo Pérez-Tomás (Cancer Cell Biology, University of Barcelona). The cytotoxicity of TMP and compounds 1a and 1b was determined by measuring the intracellular reduction of resazurin sodium salt (Sigma-Aldrich, St. Louis, MO, USA). […]
Below, each of the compounds is paired with its reported cytotoxicity at 24 h, 32 μg/mL value.

>  <compound>
COc1cc(Cc2cn3c(NC4CCCCC4)c(-c4cccnc4)nc3nc2N)cc(OC)c1OC [Compound 1b]

>  <resultUnit>
%

>  <cytotoxicity at 24 h, 32 μg/mL>
0

$$$$
>  <compound>
COc1cc(Cc2cnc(N)nc2N)cc(OC)c1OC [TMP, Trimethoprim]

>  <resultUnit>
%

>  <cytotoxicity at 24 h, 32 μg/mL>
0.8

$$$$
>  <compound>
COc1cc(Cc2cn3c(NC(C)(C)C)c(C)nc3nc2N)cc(OC)c1OC [Compound 1a]

>  <resultUnit>
%

>  <cytotoxicity at 24 h, 32 μg/mL>
0

$$$$

###

testMethodNotes: Cytotoxicity assay (resazurin)
Format: cell-based, human
conditionsUsed: human, HepG2 cells; 32 μg/mL, 24 h; percentage of dead cells
Description: The cytotoxicity assay was carried out in the human hepatocellular carcinoma cell line Hep G2 ATCC and in murine L-929 fibroblasts (NCTC clone 929, ECACC 88102702), based on the experiments described by Vinuesa et al.. The cells were obtained from Dr. Ricardo Pérez-Tomás (Cancer Cell Biology, University of Barcelona). The cytotoxicity of TMP and compounds 1a and 1b was determined by measuring the intracellular reduction of resazurin sodium salt (Sigma-Aldrich, St. Louis, MO, USA). […]

>  <compound>
COc1cc(Cc2cn3c(NC4CCCCC4)c(-c4cccnc4)nc3nc2N)cc(OC)c1OC [Compound 1b]

>  <resultUnit>
%

>  <cytotoxicity at 24 h, 32 μg/mL>
0.11

$$$$
>  <compound>
COc1cc(Cc2cnc(N)nc2N)cc(OC)c1OC [TMP, Trimethoprim]

>  <resultUnit>
%

>  <cytotoxicity at 24 h, 32 μg/mL>
0.35

$$$$

All values here come from paper PMC8231229.
